Assay: The drug is tested on Anaerococcus hydrogenalis strain: DSM7454 for biotransformation. The drug concentrations were measured before and after a 12-h incubation by liquid-chromatography-coupled mass spectrometry (LC–MS)
Conditions: 2 µM
readout.kind: Bacterial Biotransformation

- molecule: "COC1=C(OC)C(=O)C(CCCCCCCCCCO)=C(C)C1=O [IDEBENONE]"
  readout.kind: "Bacterial Biotransformation"
  readout.value: "Compound NOT metabolized"
- molecule: "Br.CN(C)CCCC1(c2ccc(F)cc2)OCc2cc(C#N)ccc21 (stereo not drawn) [CITALOPRAM HYDROBROMIDE]"
  readout.kind: "Bacterial Biotransformation"
  readout.value: "Compound NOT metabolized"
- molecule: "CCN1CCCC1CNC(=O)c1cc(S(N)(=O)=O)ccc1OC (stereo not drawn) [SULPIRIDE]"
  readout.kind: "Bacterial Biotransformation"
  readout.value: "Compound NOT metabolized"
- molecule: "CC[C@@H](CO)NC(=O)[C@@H]1C=C2c3cccc4c3c(cn4C)C[C@H]2N(C)C1.O=C(O)/C=C\\C(=O)O [METHYSERGIDE MALEATE]"
  readout.kind: "Bacterial Biotransformation"
  readout.value: "Compound metabolized"
- molecule: "CCS(=O)(=O)CCn1c([N+](=O)[O-])cnc1C [TINIDAZOLE]"
  readout.kind: "Bacterial Biotransformation"
  readout.value: "Compound metabolized"
- molecule: "C[C@@H](c1ncncc1F)[C@](O)(Cn1cncn1)c1ccc(F)cc1F [VORICONAZOLE]"
  readout.kind: "Bacterial Biotransformation"
  readout.value: "Compound NOT metabolized"
- molecule: "CC[C@H](C)C(=O)O[C@H]1C[C@@H](C)C=C2C=C[C@H](C)[C@H](CC[C@@H]3C[C@@H](O)CC(=O)O3)[C@H]21 [LOVASTATIN]"
  readout.kind: "Bacterial Biotransformation"
  readout.value: "Compound metabolized"
- molecule: "CC(C)(C)NC[C@H](O)COc1nsnc1N1CCOCC1.O=C(O)/C=C\\C(=O)O [TIMOLOL MALEATE]"
  readout.kind: "Bacterial Biotransformation"
  readout.value: "Compound NOT metabolized"

Origin of values: ChEMBL document CHEMBL5303573
